Would you mind telling me the reported CC50 at 72 h of each entry?
assay: Proliferation of exponentially growing Huh-5-2 cells (MTS method); conditions: human, CC50, concentration required to inhibit the proliferation of exponentially growing Huh-5-2 cells by 50%; Table 2
Numbers only, in µg/mL.

COCCN1C(=O)c2ccccc2C(C(=O)Nc2ccc(C(=O)NCc3ccccc3)cc2)C1c1cccs1 (centres unmarked) : 81.1
COCCN1C(=O)c2ccccc2C(C(=O)Nc2cccc(OC)c2)C1c1csc(C)n1 (centres unmarked) : 80.9
COCCN1C(=O)c2cc(OC)ccc2C(C(=O)Nc2cccc(OC)c2)C1c1cccs1 (centres unmarked) : 76.4
COCCN1C(=O)c2cc(F)ccc2C(C(=O)Nc2cccc(OC)c2)C1c1cccs1 (centres unmarked) : 81.2
COCCN1C(=O)c2ccccc2C(C(=O)n2c(=O)oc3ccc(N)cc32)C1c1cccs1 (centres unmarked) : 72.3

State recorded CC50 at 72 h for all listed compounds.
1. COCCN1C(=O)c2ccccc2C(C(=O)Nc2cc(-c3ccccc3)nn2C)C1c1cccs1 (centres unmarked)
2. COCCN1C(=O)c2ccccc2C(C(=O)Nc2ccc(-c3cccnc3)cc2)C1c1cccs1 (centres unmarked)

[7.94, 9.59]

* * *

assay: Proliferation of exponentially growing Huh-5-2 cells (MTS method); details: human, CC50, concentration required to inhibit the proliferation of exponentially growing Huh-5-2 cells by 50%; Table 2
Consider the following compounds; for each one, report its CC50 at 72 h.
One number for each entry, in µg/mL.

COCCN1C(=O)c2ccccc2C(C(=O)Nc2ccc(C#N)cc2)C1c1cccs1 (centres unmarked) [C20] : 42
COCCN1C(=O)c2ccccc2C(C(=O)Nc2cccc(OC)c2)C1C#Cc1ccccc1 (centres unmarked) [C119] : 94
COCCN1C(=O)c2ccccc2C(C(=O)Nc2ccc3c(c2)OCCO3)C1c1cccs1 (centres unmarked) [C117] : 81.9
COCCN1C(=O)c2ccccc2C(C(=O)Nc2nc(C(C)(C)C)cs2)C1c1cccs1 (centres unmarked) [C177] : 3.16

Now consider a different compound.
Entry under review: COCCN1C(=O)c2ccccc2C(C(=O)Nc2cccc(OC)c2)C1C=C(C)C (centres unmarked) [C120] . Reported CC50 at 72 h?
95.4

* * *

Assay: Proliferation of exponentially growing Huh-5-2 cells (MTS method)
Conditions: human, CC50, concentration required to inhibit the proliferation of exponentially growing Huh-5-2 cells by 50%; Table 4
Procedure: Cells were seeded at a density of 7000 cells per well in 96 well View Plate™ (Packard) in medium containing the same components as described above, except for G418. Cells were allowed to adhere and proliferate for 24 hr. […] Luciferase activity is measured by adding 50 μl of 1×Glo-lysis buffer (Promega) for 15 minutes followed by 50 ul of the Steady-Glo Luciferase assay reagent (Promega). […] Instead the density of the culture is measured by means of the MTS method (Promega).
assay_endpoint: CC50 at 72 h

COCCN1C(=O)c2ccccc2C(C(=O)Nc2cccc(OC)c2)C1c1cccs1 (racemic) : > 50 µg/mL
CCOC(=O)c1cccc(NC(=O)C2c3ccccc3C(=O)N(CCOC)C2c2cccs2)c1 (stereo not drawn) : > 50 µg/mL
COCCN1C(=O)c2ccccc2C(C(=O)Nc2ccc(-n3cccc3)cc2)C1c1cccs1 (stereo not drawn) : > 50 µg/mL
COCCN1C(=O)c2ccccc2C(C(=O)Nc2ccc(-c3ccccc3)nc2)C1c1cccs1 (stereo not drawn) : > 50 µg/mL

Please state, for each entry, its recorded CC50 at 72 h.
1. COCCN1C(=O)c2cc(F)ccc2C(C(=O)Nc2cccc(OC)c2)C1c1cccs1 (stereo not drawn)
2. C#CC1C(C(=O)Nc2ccc(-n3cccc3)cc2)c2ccccc2C(=O)N1CCOC (stereo not drawn)
3. COc1cccc(NC(=O)C2c3ccccc3C(=O)N(CC3CCCO3)C2c2cccs2)c1 (stereo not drawn)
4. COCCN1C(=O)c2ccccc2C(C(=O)Nc2ccc(-c3ccco3)cc2)C1c1cccs1 (stereo not drawn)
5. COCCN1C(=O)c2cc(C)ccc2C(C(=O)Nc2cccc(OC)c2)C1c1cccs1 (stereo not drawn)

> 50 µg/mL
> 30 µg/mL
> 50 µg/mL
> 50 µg/mL
> 50 µg/mL

* * *

assay: Proliferation of exponentially growing Huh-5-2 cells (MTS method); details: human, CC50, concentration required to inhibit the proliferation of exponentially growing Huh-5-2 cells by 50%; Table 2
assay_endpoint: CC50 at 72 h (µg/mL)
One number for each entry, in µg/mL.

COCCN1C(=O)c2ccccc2C(C(=O)Nc2ccc(-c3nncn3C)cc2)C1c1cccs1 (centres unmarked) : 85.3

Would you mind listing CC50 at 72 h for each of the following compounds?
1. COCCN1C(=O)c2ccccc2C(C(=O)Nc2cccc(N3CCCC3)c2)C1c1cccs1 (centres unmarked)
2. COCCN1C(=O)c2ccccc2C(C(=O)Nc2ccc(Cn3cccn3)cc2)C1c1cccs1 (centres unmarked)

1: 81.3; 2: 43

Required: CC50 at 72 h, one value per compound below.
1. COCCN1C(=O)c2ccccc2C(C(=O)Nc2ccc(C#N)c(C(F)(F)F)c2)C1c1cccs1 (centres unmarked)
2. COCCN1C(=O)c2cc(C)ccc2C(C(=O)Nc2cccc(OC)c2)C1c1cccs1 (centres unmarked)

[3.52, 107]

* * *

assay: Proliferation of exponentially growing Huh-5-2 cells (MTS method); conditions: human, CC50, concentration required to inhibit the proliferation of exponentially growing Huh-5-2 cells by 50%; Table 2
Could you please report measured CC50 at 72 h for the items listed next?
Be sure to follow the number with its unit.

COCCN1C(=O)c2ccccc2C(C(=O)Nc2cccc(OC)c2)C1C(C)(C)C (stereo not drawn) [C57] : 76.2 µg/mL
COCCN1C(=O)c2ccccc2C(C(=O)Nc2cccc(OC)c2)C1C1CCCC1 (stereo not drawn) [C118] : 98.2 µg/mL

Shifting focus to the compound that follows.
Entry COCCN1C(=O)c2ccccc2C(C(=O)Nc2cc(-c3ccco3)[nH]n2)C1c1cccs1 (stereo not drawn) [C183] : reported CC50 at 72 h = ?
77 µg/mL

* * *

assay: Proliferation of exponentially growing Huh-5-2 cells (MTS method); conditions: human, CC50, concentration required to inhibit the proliferation of exponentially growing Huh-5-2 cells by 50%; Table 2
assay_endpoint: CC50 at 72 h (µg/mL)
One number for each entry, in µg/mL.

# return CC50 at 72 h for each item in the list
1. COCCN1C(=O)c2ccccc2C(C(=O)Nc2ccc(C(=O)N(C)C)cc2)C1c1cccs1 (stereo not drawn)
2. COc1cccc(NC(=O)C2c3ccccc3C(=O)N(CCCN3CCOCC3)C2c2cccs2)c1 (stereo not drawn)
3. COCCN1C(=O)c2ccccc2C(C(=O)Nc2cccc(-n3cncn3)c2)C1c1cccs1 (stereo not drawn)

[75.3, 47.8, 59.4]

# per-item lookup of CC50 at 72 h; items listed below
1. COCCN1C(=O)c2ccccc2C(C(=O)Nc2cc(C)on2)C1c1cccs1 (stereo not drawn)
2. COCCN1C(=O)c2ccccc2C(C(=O)Nc2ccc3c(c2)CC(=O)N3C)C1c1cccs1 (stereo not drawn)
3. CNC(=O)c1ccc(NC(=O)C2c3ccccc3C(=O)N(CCOC)C2c2cccs2)cc1 (stereo not drawn)
4. COCCCN1C(=O)c2ccccc2C(C(=O)Nc2cccc(OC)c2)C1c1cccs1 (stereo not drawn)
5. COCCN1C(=O)c2ccccc2C(C(=O)NCc2cccc3ccccc23)C1c1cccs1 (stereo not drawn)

[58.1, 52.3, 73.8, 33.3, 71.2]

* * *

assay: Proliferation of exponentially growing Huh-5-2 cells (MTS method); conditions: human, CC50, concentration required to inhibit the proliferation of exponentially growing Huh-5-2 cells by 50%; Table 2
assay_endpoint: CC50 at 72 h (µg/mL)
One number for each entry, in µg/mL.

Example results:
CCOC(=O)c1cccc(NC(=O)C2c3ccccc3C(=O)N(CCOC)C2c2cccs2)c1 (stereo not drawn) : 86.3
COCCN1C(=O)c2ccccc2C(C(=O)Nc2ccc3ncsc3c2)C1c1cccs1 (stereo not drawn) : 37.7
COCCN1C(=O)c2c(ccc(C)c2F)C(C(=O)Nc2cccc(OC)c2)C1c1cccs1 (stereo not drawn) : 32.9
COCCN1C(=O)c2ccccc2C(C(=O)Nc2ccc(CO)cc2)C1c1cccs1 (stereo not drawn) : 79.9
COCCN1C(=O)c2ccccc2C(C(=O)Nc2ccc3c(c2)COC3)C1c1cccs1 (stereo not drawn) : 75.9
COCCN1C(=O)c2ccccc2C(C(=O)Nc2ccc(F)cc2)C1c1cccs1 (stereo not drawn) : 76.3
COCCN1C(=O)c2ccccc2C(C(=O)Nc2ccc(C)cc2)C1c1cccs1 (stereo not drawn) : 75
COCCN1C(=O)c2ccccc2C(C(=O)Nc2cc(C)no2)C1c1cccs1 (stereo not drawn) : 87.2

Could you now consider this next compound?
Given the compound COCCN1C(=O)c2cccc(C)c2C(C(=O)Nc2cccc(OC)c2)C1c1cccs1 (stereo not drawn) , what is its reported CC50 at 72 h?
80
